Just for reference, paper PMC12612973 is where these values come from.

biological target: human amylin (hIAPP) (Homo sapiens, UniProt P10997); construct: purchased Bachem USA; test: Thioflavin T (ThT) fluorescence assay of amylin aggregation; format: biochemical; conditions: compound 10 μM, amylin 15 μM, 36 h incubation, 3 trials
Field: ThT inhibition % (mean ± SEM). Provide a value for each of the compounds that follow.
Answers are plain numbers, in %.

>  <COMPOUND>
CC(C)(C)c1cccc(CNCC(O)CNCC(c2ccccc2)c2ccccc2)c1 (stereo not drawn) [Compound 17]

>  <REPORTED_METRIC>
ThT inhibition % (mean ± SEM)

>  <MEASURED_NUMBER>
88.1

$$$$
>  <COMPOUND>
CC(C)(C)c1cccc(CNCC(O)CCN2CCN(C(c3ccccc3)c3ccccc3)CC2)c1 (stereo not drawn) [Compound 13]

>  <REPORTED_METRIC>
ThT inhibition % (mean ± SEM)

>  <MEASURED_NUMBER>
74.7

$$$$
>  <COMPOUND>
C/C=C1/C(O)OC=C(C(=O)OC)[C@H]1CC(=O)OCCc1ccc(O)c(O)c1 (mixture of isomers) [Oleuropein aglycone, reference compound]

>  <REPORTED_METRIC>
ThT inhibition % (mean ± SEM)

>  <MEASURED_NUMBER>
82.3

$$$$
>  <COMPOUND>
CC(C)(C)c1cccc(CNCC(O)CCNCC(c2ccccc2)c2ccccc2)c1 (stereo not drawn) [Compound 21]

>  <REPORTED_METRIC>
ThT inhibition % (mean ± SEM)

>  <MEASURED_NUMBER>
90.8

$$$$
>  <COMPOUND>
CC(C)(C)c1cccc(CNCC(O)CCNCCC(c2ccccc2)c2ccccc2)c1 (stereo not drawn) [Compound 22]

>  <REPORTED_METRIC>
ThT inhibition % (mean ± SEM)

>  <MEASURED_NUMBER>
89.3

$$$$

Now let's try a different one.
## Input Suppose we examine the compound CC(C)(C)c1cccc(CNCC(O)CNCCC(c2ccccc2)c2ccccc2)c1 (stereo not drawn) [Compound 18] ; what ThT inhibition % (mean ± SEM) value has been reported?
## Output 91.5

* * *

biological target: human amylin (hIAPP) (Homo sapiens); construct: purchased Bachem USA; assay: Kinetic analysis of amylin aggregation (ThT, two-step autocatalytic aggregation model); assay type: biochemical; conditions: ThT data, autocatalytic aggregation model, mean ± S.D.
REPORTED_METRIC: k n (nucleation constant) (h^–1)
Numbers only, in h^–1.

Look over these answered cases.
>  <COMPOUND>
CC(C)(C)c1cccc(CNCC(O)CN2CCN(C(c3ccccc3)c3ccccc3)CC2)c1 (centres unmarked)

>  <k n (nucleation constant), h^–1>
0.0039

$$$$
>  <COMPOUND>
CC(C)(C)c1cccc(CNCC(O)CCN2CCN(C(c3ccccc3)c3ccccc3)CC2)c1 (centres unmarked)

>  <k n (nucleation constant), h^–1>
0.0011

$$$$
>  <COMPOUND>
C/C=C1/C(O)OC=C(C(=O)OC)[C@H]1CC(=O)OCCc1ccc(O)c(O)c1 (mixture of isomers) [Oleuropein aglycone, reference compound]

>  <k n (nucleation constant), h^–1>
0.0022

$$$$
>  <COMPOUND>
CC(C)(C)c1cccc(CNCC(O)CNCC(c2ccccc2)c2ccccc2)c1 (centres unmarked)

>  <k n (nucleation constant), h^–1>
0.0010

$$$$

## Input Suppose we examine the compound OC(CNCCC(c1ccccc1)c1ccccc1)CNCc1ccccc1 (centres unmarked) ; what k n (nucleation constant) value has been reported?
## Output 0.0012

* * *

molecular target: human amylin (hIAPP) (Homo sapiens, UniProt P10997); construct: purchased Bachem USA; assay: Kinetic analysis of amylin aggregation (ThT, two-step autocatalytic aggregation model); type: biochemical; details: 10% of highest ThT fluorescence, mean ± S.D.
REPORTED_METRIC: t 0 (time point when the aggregation starts) (h)
Answers are plain numbers, in h.

Look over these answered cases.
>  <COMPOUND>
CC(C)(C)c1cccc(CNCC(O)CN2CCN(C(c3ccccc3)c3ccccc3)CC2)c1 (centres unmarked) [Compound 6]

>  <READOUT_UNIT>
h

>  <MEASURED_NUMBER>
8.36

$$$$
>  <COMPOUND>
CC(C)(C)c1cccc(CNCC(O)CCNCCC(c2ccccc2)c2ccccc2)c1 (centres unmarked) [Compound 22]

>  <READOUT_UNIT>
h

>  <MEASURED_NUMBER>
4.36

$$$$
>  <COMPOUND>
CC(C)(C)c1cccc(CNCC(O)CCNCC(c2ccccc2)c2ccccc2)c1 (centres unmarked) [Compound 21]

>  <READOUT_UNIT>
h

>  <MEASURED_NUMBER>
9.54

$$$$
>  <COMPOUND>
OC(CNCCC(c1ccccc1)c1ccccc1)CNCc1ccccc1 (centres unmarked) [Compound 16]

>  <READOUT_UNIT>
h

>  <MEASURED_NUMBER>
11.03

$$$$
>  <COMPOUND>
CC(C)(C)c1cccc(CNCC(O)CNCCC(c2ccccc2)c2ccccc2)c1 (centres unmarked) [Compound 18]

>  <READOUT_UNIT>
h

>  <MEASURED_NUMBER>
9.31

$$$$
>  <COMPOUND>
C/C=C1/C(O)OC=C(C(=O)OC)[C@H]1CC(=O)OCCc1ccc(O)c(O)c1 (mixture of isomers) [Oleuropein aglycone, reference compound]

>  <READOUT_UNIT>
h

>  <MEASURED_NUMBER>
10.76

$$$$
>  <COMPOUND>
CC(C)(C)c1cccc(CNCC(O)CCN2CCN(C(c3ccccc3)c3ccccc3)CC2)c1 (centres unmarked) [Compound 13]

>  <READOUT_UNIT>
h

>  <MEASURED_NUMBER>
12.49

$$$$

Now let's try a different one.
## Input Suppose we examine the compound CC(C)(C)c1cccc(CNCC(O)CNCC(c2ccccc2)c2ccccc2)c1 (centres unmarked) [Compound 17] ; what t 0 (time point when the aggregation starts) value has been reported?
## Output 13.13

* * *

Target: human amylin (hIAPP) (Homo sapiens, UniProt P10997)
Construct: purchased Bachem USA
Sequence (P10997 34-70 limits assumed): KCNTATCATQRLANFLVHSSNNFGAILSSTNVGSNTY
Test: Dynamic light scattering (DLS) assay of amylin aggregation
Type: biochemical
Conditions: compound 10 μM, amylin 15 μM, 36 h incubation, 3 trials; read-out: DLS inhibition % (mean ± SEM)
Mark t for reported inhibition at 10 µM of 30% or greater; mark f for anything smaller.

Worked cases, answers included:
>  <COMPOUND>
COc1ccc(CNCC(O)CN2CCN(C(c3ccccc3)c3ccccc3)CC2)cc1 (stereo not shown)

>  <GROUP_LABEL>
f

$$$$
>  <COMPOUND>
CCCC(C)N1CCN(CC(O)CNCc2ccc(OC)cc2)CC1 (stereo not shown)

>  <GROUP_LABEL>
f

$$$$
>  <COMPOUND>
COc1ccc(CNCC(O)CCN2CCN(C(c3ccccc3)c3ccccc3)CC2)cc1 (stereo not shown)

>  <GROUP_LABEL>
f

$$$$
>  <COMPOUND>
COc1ccc(CNCC(O)CN2CCN(c3ccccc3)CC2)cc1 (stereo not shown)

>  <GROUP_LABEL>
f

$$$$
>  <COMPOUND>
COc1ccc(CNCC(O)CN2CCN(C(c3ccc(F)cc3)c3ccc(F)cc3)CC2)cc1 (stereo not shown)

>  <GROUP_LABEL>
f

$$$$
>  <COMPOUND>
OC(CNCc1ccccc1)CN1CCN(C(c2ccccc2)c2ccccc2)CC1 (stereo not shown)

>  <GROUP_LABEL>
f

$$$$
>  <COMPOUND>
OC(CNCCC(c1ccccc1)c1ccccc1)CNCc1ccccc1 (stereo not shown)

>  <GROUP_LABEL>
t

$$$$
>  <COMPOUND>
OC(CNCc1ccccc1)CNCC(c1ccccc1)c1ccccc1 (stereo not shown)

>  <GROUP_LABEL>
f

$$$$
>  <COMPOUND>
OC(CCNCCC(c1ccccc1)c1ccccc1)CNCc1ccccc1 (stereo not shown)

>  <GROUP_LABEL>
f

$$$$
>  <COMPOUND>
CC(C)(C)c1cccc(CNCC(O)CNCC(c2ccccc2)c2ccccc2)c1 (stereo not shown)

>  <GROUP_LABEL>
t

$$$$

Turning now to a further compound:
## Input Can CC(C)(C)c1cccc(CNCC(O)CCNCC(c2ccccc2)c2ccccc2)c1 (stereo not shown) be said to have inhibition at 10 µM at or above 30%?
## Output t

* * *

target: human amylin (hIAPP) (Homo sapiens); construct: purchased Bachem USA; assay: Kinetic analysis of amylin aggregation (ThT, two-step autocatalytic aggregation model); type: biochemical; settings: ThT data, autocatalytic aggregation model, mean ± S.D.
Field: k e (elongation constant). Provide a value for each of the molecules that follow.
Answers are plain numbers, in M^–1h^–1.

Look over these answered cases.
>  <MOLECULE>
CC(C)(C)c1cccc(CNCC(O)CNCC(c2ccccc2)c2ccccc2)c1 (stereo not shown)

>  <READOUT_UNIT>
M^–1h^–1

>  <k e (elongation constant)>
17913

$$$$
>  <MOLECULE>
C/C=C1/C(O)OC=C(C(=O)OC)[C@H]1CC(=O)OCCc1ccc(O)c(O)c1 (mixture of isomers) [Oleuropein aglycone, reference compound]

>  <READOUT_UNIT>
M^–1h^–1

>  <k e (elongation constant)>
15773

$$$$
>  <MOLECULE>
CC(C)(C)c1cccc(CNCC(O)CCN2CCN(C(c3ccccc3)c3ccccc3)CC2)c1 (stereo not shown)

>  <READOUT_UNIT>
M^–1h^–1

>  <k e (elongation constant)>
18195

$$$$

## Input Recall the recorded k e (elongation constant) for OC(CNCCC(c1ccccc1)c1ccccc1)CNCc1ccccc1 (stereo not shown) with human amylin (hIAPP) (Homo sapiens) and state it.
## Output 19973
